procedure.summary: Phase 1/1b clinical trial: plasma pharmacokinetics of PF-07220060
Type: in vivo, human
measurement.context: human, plasma, po, 200 mg, 200 mg BID oral monotherapy (Part 1A); C1D15 post multiple doses; geometric mean
Experimental: Oral PF-07220060 was administered with at least 8 oz (240 mL) of water on an empty stomach (except during the food effect evaluation on Day-7 in Part 1D). No food or liquids other than water was consumed for 2 hours before and 1 hour following each dose throughout the study for BID dosing. […] In the ongoing Phase 1/1b Study, as of Aug. […] Available plasma concentration-time data of PF-07220060 were analyzed using noncompartmental methods. […]
reported.metric: Cmax (ng/mL)
// note: answer is a bare numeric in ng/mL

Lab book: Cmax of CC(C)n1c(C(C)(C)O)nc2c(F)cc(-c3nc(N[C@@H]4CCOC[C@H]4O)ncc3Cl)cc21 noted as 1010

* * *

procedure.summary: Phase 1/1b clinical trial: plasma pharmacokinetics of PF-07220060
Type: in vivo, human
measurement.context: human, plasma, po, 500 mg, 500 mg BID oral monotherapy (Part 1A); C1D1 post first dose; geometric mean; read-out: AUC12
reported.metric: AUC (ng·h/mL)
A number alone suffices; assume ng·h/mL.

Documented AUC of CC(C)n1c(C(C)(C)O)nc2c(F)cc(-c3nc(N[C@@H]4CCOC[C@H]4O)ncc3Cl)cc21 : 4170

* * *

procedure.summary: Phase 1/1b clinical trial: plasma pharmacokinetics of PF-07220060
Type: in vivo, human
measurement.context: human, plasma, po, 400 mg BID oral + letrozole (Part 1B); C1D1 post first dose; geometric mean
reported.metric: Cmax (ng/mL)
Express your answer in ng/mL, writing the number without its unit.

Value of measured Cmax for the entry CC(C)n1c(C(C)(C)O)nc2c(F)cc(-c3nc(N[C@@H]4CCOC[C@H]4O)ncc3Cl)cc21 : 950

* * *

procedure.summary: Phase 1/1b clinical trial: plasma pharmacokinetics of PF-07220060
Assay type: in vivo, human
measurement.context: human, plasma, po, 400 mg, 400 mg BID oral monotherapy (Part 1A); C1D15; geometric mean; read-out: AUCtau
Protocol: Oral PF-07220060 was administered with at least 8 oz (240 mL) of water on an empty stomach (except during the food effect evaluation on Day-7 in Part 1D). No food or liquids other than water was consumed for 2 hours before and 1 hour following each dose throughout the study for BID dosing. […] In the ongoing Phase 1/1b Study, as of Aug. […] Available plasma concentration-time data of PF-07220060 were analyzed using noncompartmental methods. […]
reported.metric: AUC (ng·h/mL)
Give just the numeric value; ng·h/mL need not be written.

GET /value?item= CC(C)n1c(C(C)(C)O)nc2c(F)cc(-c3nc(N[C@@H]4CCOC[C@H]4O)ncc3Cl)cc21 &field=AUC returns 8000

* * *

procedure.summary: Phase 1/1b clinical trial: plasma pharmacokinetics of PF-07220060
Assay type: in vivo, human
measurement.context: human, plasma, po, 500 mg, 500 mg BID oral monotherapy (Part 1A); C1D15; n = 1; read-out: AUCtau
reported.metric: AUC (ng·h/mL)
Note: unit ng·h/mL is implicit; provide only the numeric part.

Reported AUC ( CC(C)n1c(C(C)(C)O)nc2c(F)cc(-c3nc(N[C@@H]4CCOC[C@H]4O)ncc3Cl)cc21 ) = 12500
